All values here come from patent US10745370B2.

- System: M1 macrophages
- procedureDetails: Cell marker expression on M1 macrophages, flow cytometry
- Format: cell-based, human
- conditionInfo: control 71.34%
- Method: M1 differentiation of freshly isolated CD14^+ cells was induced by the addition of lipopolysaccharide (LPS), while M2 differentiation of freshly isolated CD14^+ cells was induced by the addition of IL-4. Then, the present compounds (e.g., Mib-5, 6, 7, 8, 9, or 10) were added at the indicated dosages. 6 days later, the population of the differentiated macrophages were then determined by cell viability analysis. […]
Listed here are compounds together with their documented CD80 expression on M1 macrophages.

| sampleSmiles | u | CD80 expression on M1 macrophages |
| --- | --- | --- |
| COC1=CC(=O)[C@@]2(c3cc(=O)c4c(O)cc(O)cc4o3)[C@H](CC=C(C)[C@@H]2C[C@]2(C)[C@@H](C(=O)O)CC=C3[C@H]2CCCC3(C)C)C1=O | % | 60.16 |
| COC1=CC(=O)[C@@]2(c3cc(=O)c4c(O)cc(OC)cc4o3)[C@H](C[C@]3(C)[C@@H](C(=O)O)CC=C4[C@H]3CCCC4(C)C)C(C)=CC[C@H]2C1=O | % | 6.59 |
| COC1=CC(=O)[C@@]2(c3cc(=O)c4c(O)cc(O)cc4o3)[C@H](C[C@]3(C)[C@@H](C(=O)O)CC=C4[C@H]3CCCC4(C)C)C(C)=CC[C@H]2C1=O | % | 23.04 |
| COC1=CC(=O)[C@@]2(c3cc(=O)c4ccc(OC)cc4o3)[C@H](C[C@]3(C)[C@@H](C(=O)O)CC=C4[C@H]3CCCC4(C)C)C(C)=CC[C@H]2C1=O | % | 11.94 |
| COC1=CC(=O)[C@@]2(c3cc(=O)c4ccc(O)cc4o3)[C@H](CC=C(C)[C@@H]2C[C@]2(C)[C@@H](C(=O)O)CC=C3[C@H]2CCCC3(C)C)C1=O | % | 84.46 |

----------
- Test system: M2 macrophages
- procedureDetails: Cell marker expression on M2 macrophages, flow cytometry
- Assay type: cell-based, human
- conditionInfo: control 47.64%
Below, each entry is listed with its recorded CD80 expression on M2 macrophages.
reportedEndpoint: CD80 expression on M2 macrophages (%)

| sampleSmiles | reportedEndpoint | recordedResult |
| --- | --- | --- |
| COC1=CC(=O)[C@@]2(c3cc(=O)c4c(O)cc(O)cc4o3)[C@H](CC=C(C)[C@@H]2C[C@]2(C)[C@@H](C(=O)O)CC=C3[C@H]2CCCC3(C)C)C1=O | CD80 expression on M2 macrophages | 56.66 |
| COC1=CC(=O)[C@@]2(c3cc(=O)c4ccc(O)cc4o3)[C@H](CC=C(C)[C@@H]2C[C@]2(C)[C@@H](C(=O)O)CC=C3[C@H]2CCCC3(C)C)C1=O | CD80 expression on M2 macrophages | 59.89 |
| COC1=CC(=O)[C@@]2(c3cc(=O)c4ccc(OC)cc4o3)[C@H](C[C@]3(C)[C@@H](C(=O)O)CC=C4[C@H]3CCCC4(C)C)C(C)=CC[C@H]2C1=O | CD80 expression on M2 macrophages | 53.03 |
| COC1=CC(=O)[C@@]2(c3cc(=O)c4c(O)cc(OC)cc4o3)[C@H](C[C@]3(C)[C@@H](C(=O)O)CC=C4[C@H]3CCCC4(C)C)C(C)=CC[C@H]2C1=O | CD80 expression on M2 macrophages | 41.4 |
| COC1=CC(=O)[C@@]2(c3cc(=O)c4c(O)cc(O)cc4o3)[C@H](C[C@]3(C)[C@@H](C(=O)O)CC=C4[C@H]3CCCC4(C)C)C(C)=CC[C@H]2C1=O | CD80 expression on M2 macrophages | 49.58 |
